- Test system: MS2 coat protein
- Assay Info: apparent KD of MS2 coat protein, switch ON state; designed switch direction (-1 OFF switch, 1 ON switch): 1; higher = weaker reporter binding
- Condition Details: FMN input: 0 or 200 uM; Eterna round: R93 (includes R88 designs)
Measured Quantity: apparent KD of MS2 coat protein (nM)
Provide only the numeric value, understood in nM.

The following sequences have reported results that may help.
{"columns": ["Primary Sequence", "Measured Quantity", "Numeric Value"],
 "data": [
  ["AAAAACACGGUGCAGGAUAUAUUAAUAGUCACAUGAGGAUCACCCAUGUUCAUUUAUAUGAACGAGUAGAAGGGCGGUGAAAAAA [Mat - Same state - Malcolm Mod - D112]", "apparent KD of MS2 coat protein", 172],
  ["GAAAAACAUGAGGAUCACCCAUGUGAAAAUAUGGGAGGAUAUACGAAGUCGAAAGUCAGAGUAGAAGGCCUAAAAG [Garnet 33]", "apparent KD of MS2 coat protein", 26.7]
]}

Let's switch to this sequence now.
Q: Given the entry AAAACACAUGAGGAUCACCCAUGUAAAAACAAGGGAGGAUAUGCUUGGAAAACAUGCUAUGCAGAAGGCUCAAGUG [SS1 - 11] , report its measured apparent KD of MS2 coat protein.
Result: 42.9
